Assay: yeast display, Sf9 membrane polyspecificity reagent, FACS + sequencing; frameworks hold sequencing errors
readout-type: polyreactivity (PSR sort gate)

Worked examples, 4 sequences total:
[
  {
    "sequence-record": "QVQLVESGGGLVQAGGTLRLSCDASGRTFGYNAMGWYRQAPGKAREFDAAITWSGGSTYYADSVKGRFTISRDNAKNTVYLQMNSLKPEDTAVYYCAADLGRPLHGVAYGYWGQGTQVTVSS",
    "result": "low polyreactivity"
  },
  {
    "sequence-record": "QVQLVESGGGLVPAGGSLRLSCASSGRTFYPYAMGRYRQAPGKERELVAAITTSGGRTYYADSVKGRFTISRDNAKNTVYLQMNSLKPEDTGVYYCAKVYREGEGKFDYWGQGTQVTVSS",
    "result": "high polyreactivity"
  },
  {
    "sequence-record": "QVQLVESRGGLVQAGGSLRLSCAASGITSRLNAMVWYRQAPGKERELVAGISRGGGTTYYADSVKGRFTISRDNAKNTVYLQMNSLKTEDTAVYYCAAAYRVRGGTYDSWGQGTQVTVSS",
    "result": "high polyreactivity"
  },
  {
    "sequence-record": "QVQLVESGGGLVQAGGSLRLSCAASGRIFTGYAMGWYRQAPGTERELVAAISDGGSTNYADSVKGRFTISRDNAKNTVYLQMNSLKPEDTAVYYCAADGHSSDKYDYWGQGTQVTVSS",
    "result": "low polyreactivity"
  }
]

Fill in the blank: the reported polyreactivity (PSR sort gate) of QVQLVESWGGLVQAGGSLRLICAASGSTFRDYFLGWYRRAPGKERELVATISGSGGSTYYADSVKGRFTISRDNAKNTVYLQMNSLKPEDTAFYYCAAVSVSSWYDYWGQGTQVTVSS is ____.
low polyreactivity

Fill in the blank: the reported polyreactivity (PSR sort gate) of QVQLVESGGGLGQAGGSLRLSCAASGSIFHPYAMGWYRQAPGKERELVASITSSGGSTYYADSVKGRFTISRDTAKNTVYLQMNSMKPEDTAVYYCNAQFLVYFYWYSTTAYIMYYWGQGTQVTVSS is ____.
low polyreactivity

Fill in the blank: the reported polyreactivity (PSR sort gate) of QVQLVESGGGLVQAGGSLRLSCAASGFTFDKNAMGWYRQAPGKERELVAAINIGSTYYADSVKGRFTISRDNAKNTVYLQMNSLKPEDSAVYYCAKEVPSGYWVNYYYWGQGTQVTVSS is ____.
low polyreactivity

###

Experiment: yeast display, Sf9 membrane polyspecificity reagent, FACS + sequencing; frameworks hold sequencing errors

[
  {
    "sequence-record": "QVQLVESGGGLVQAGGSLRLSCAASGSIFYIYAMGWYRQAPGKERELVAAITSSVGRTYYADSVKGRFTISRDNAKNTFYLQMNSLKAEDTAVYYCAADYYYSQVAYVYWGHGTQVTVSS",
    "polyreactivity (PSR sort gate)": "high polyreactivity"
  },
  {
    "sequence-record": "QVQLVESGGGLVQAGGSLRLSCAASGSTFNRYAMGWYRQAPGTERELVAAISGRGGSTYYADSVKGRFTISRDNAKNTVYLQMNSLKPEDTAVYYCAKLSYLHGTAREFRFDYWGQGTQVTVSS",
    "polyreactivity (PSR sort gate)": "high polyreactivity"
  }
]

###

Test: yeast display, Sf9 membrane polyspecificity reagent, FACS + sequencing; frameworks hold sequencing errors
readout-type: polyreactivity (PSR sort gate)

[
  {
    "sequence-record": "QVQLVETGGGLVQAGGSLRLSCAASGSTFESNTMGWYRQAPGKERELVAAISYSGGRTYYADSVKGRFTISRDNAKNTVYLQMNSLKPEDTAVYYCAARWSVSYQYWGQGSQVTVSS",
    "polyreactivity (PSR sort gate)": "high polyreactivity"
  },
  {
    "sequence-record": "QVQLVESGGGLVQAGGSLRLSCAASGRIFQIYAMGWYRQAPGKERELVAAISNRGGSTYYADSVKGRFTISRDNAKNTVYLQMNSLKPEDTAVYYCNATTGYGGYNYWGQGTQVTVSS",
    "polyreactivity (PSR sort gate)": "low polyreactivity"
  },
  {
    "sequence-record": "QVQLVESGGGLVQAGGSLRLSCAASGRILGYYAMGGSRQAPGKERELVAAISSGDSTNYADSVKGRFTISRDNAKNTVYLQMNSLKPEDTAVYYCAAKGWIWNPYNYWGQGTQGTVSS",
    "polyreactivity (PSR sort gate)": "low polyreactivity"
  },
  {
    "sequence-record": "QVQLVETGGGLVQAGGSLRLSCAASGITFGRNTMGWYRQAPGKERELVAAIDSGANTYADSVKGRFTISRDNAKNTVYLQMNSLKPEDTAVYYCAVDGGEFSSYGYWGQATQVTVSS",
    "polyreactivity (PSR sort gate)": "low polyreactivity"
  },
  {
    "sequence-record": "QVQLVESGGGLVQAGGSLRLSCAASGFLPNAMGWYRQAPGKERELVAAISSRGGSTYYADSVKGRFTISRDNAKNTVYLQMISLKPEDTAVYYCAATYYGRDGYRYDYWGQGTQVTVSS",
    "polyreactivity (PSR sort gate)": "high polyreactivity"
  },
  {
    "sequence-record": "QVQLVESGGGLVQAGGSLRLSCAASGFTFKQNAMGWYRQAPGKERELVAAISSSGRTNYADSVKGRFTISRDNAKNTVYLQMNSLKPEDTAVYYCAAATYNAYGRRSRYYHGYNSWGQGTQVTVSS",
    "polyreactivity (PSR sort gate)": "high polyreactivity"
  },
  {
    "sequence-record": "QVQLVESGGGLVQAGGSLRLSCAASGRIFWYYAMGWYRQAPGKERELVADISTGGSTNYADSVKGRFTISRDNAKNTVYLQMNSLKPEDTAVYYCATTVPVILYVTPSTYAVVGYEYWGQGTQVTVSS",
    "polyreactivity (PSR sort gate)": "low polyreactivity"
  },
  {
    "sequence-record": "QVQLVESGGGLVQAGGSLRLSCAASGSIFYNNAMGWYRQAPGKERELVAAITIGGSTNYADSVKGRFTISRDNAKNTVYLQMNSLNPEDTAVYYCAAAVLYWVGYGYWGQGTQVTVSS",
    "polyreactivity (PSR sort gate)": "low polyreactivity"
  }
]

Fill in the blank: the reported polyreactivity (PSR sort gate) of QVQLVESGGGLVQAGGSLRLSCAASGSTFGYYAMGWYRQAPGKERELVAAISLGGGSTYYADSVKGRFTISRDNAKNTVYLQMNSLKPEDTEVYYCAARPYVRVKWKFNYWGQGTQVTVSS is ____.
low polyreactivity

Fill in the blank: the reported polyreactivity (PSR sort gate) of QVQLVDSGGGLVQAGGSLRLSCAATGFTLPKYAMGWYRQAPGKERELVAAISSGGSTYYADSVKGRYTISRDNAKNTVYLQMNSLKPEDSAVYYCAAKYYYYRRDYWGQGTQVTLSS is ____.
high polyreactivity

Fill in the blank: the reported polyreactivity (PSR sort gate) of QVQLVESGGGLDQAGGSLRLSCAASGSIFYRNAMGWYRQAPGKEMELVAAISGRGGSTNYADSVKGRFTISRDNAKNTVYLPMNSLKPEDTAVYYCNRFGVSNILVRGGYWGLGTQVTVSS is ____.
high polyreactivity

###

Test: yeast display, Sf9 membrane polyspecificity reagent, FACS + sequencing; frameworks hold sequencing errors
readout-type: polyreactivity (PSR sort gate)

Worked examples, 4 sequences total:
[
  {
    "sequence-record": "QVQLVESGGGLVQAGGSLRLSCAASGSTFLVYAMGWYRQAPGKERELVAAIRGGGSTNYADSVKGRFTISRDNAKNTVYLQMNSLKPEDTAVYYCNADIVLSWFGSGFDYWGQGTQVTVSS",
    "result": "low polyreactivity"
  },
  {
    "sequence-record": "QVQHVESGGGLVQAGGSLRLSCDASGSTFPYYTMGWYRQAPGKERELVAAITWRGGRTYYADSVKGRFTISRDNAKNTVYLQMNSLKPEDTAVYYCATGYSYRGYSALSGYDYWGQGTQVTVSS",
    "result": "high polyreactivity"
  },
  {
    "sequence-record": "QVQLVESGGGLVQAGGSLRLSCAASGFTFRYYAMGWYRQAPGKERELVAAISWSGASTYYADSVKGRFTISRDNAKNTVYLQMNSLKPEDTAVYYCAADIPGTYYYWGQGTEVTVSS",
    "result": "high polyreactivity"
  },
  {
    "sequence-record": "QVQLVESGGGLVQAGGSLRLSCAASGSIFYGYAMGWYRQAPGKERELVAAITTSGGSTYYADSVKGRFTISRDNAKYTVYLQMNSLKPEDTAVYYCAAVTYWPGGYYWGQGTQVTVSS",
    "result": "high polyreactivity"
  }
]

# ---- query sequence ----
Fill in the blank: the reported polyreactivity (PSR sort gate) of QVQLVESGGGLVQAGGSLRLSCAASGRTFDVYAMGWYRQAPGKERELVATIRSDGSTTYADSVKGRFTISRDNAKNTVYLQMTSLKPEDTAVYYCAADFRSGFSSSTTPVQSDWGQGTQVTVSS is ____.
low polyreactivity
